Test system: MCF7 breast
Assay: NCI-60 one-dose screen, 48 h (100 = growth as untreated, 0 = no growth, -100 = all killed)
Conditions: 10 µM
About 83,000 compounds went through this panel and 20% of them were active in at least one assay; those are over-represented in the sample as a whole.
growth listing for selected compounds.
Outcome measure: growth (%)

compound=C/C=C\C(=O)O[C@@H]1CC2O[C@@H]3C=C(C)C(=O)C[C@]3(C)[C@]1(C)[C@]21CO1 outcome_measure=growth recorded_value=0.933
compound=N#Cc1c(-n2c(Br)c(Br)c3cc(Br)ccc32)[nH]c2c(Br)cc(Br)cc12 outcome_measure=growth recorded_value=-13.6
compound=Cc1ccc(CNc2nc3ccc(OC/C(=C/F)CN)cc3o2)cn1 outcome_measure=growth recorded_value=88.8
compound=COc1cc2c(cc1OC)[C@@H]1N(CC2)C(=O)c2ccccc2[C@@]1(C)C(=O)O outcome_measure=growth recorded_value=97.4
compound=CC(C)=CCc1c2c(c(O)c3c1O[C@]14C(=C[C@@H]5C[C@H]1C(C)(C)O[C@@]4(C/C=C(/C)C(=O)O)C5=O)C3=O)C=CC(C)(C)O2 outcome_measure=growth recorded_value=-61
compound=CC1=C(CN(O)C(N)=O)C2=C(C)C3(CC3)[C@@](C)(O)C(=O)C2=C1 outcome_measure=growth recorded_value=9.79
compound=COc1cccc2c1cc([N+](=O)[O-])c1c(C(=O)O)cc3c(c12)OCO3 outcome_measure=growth recorded_value=94.9
compound=CC1=C2C(=C[C@@](C)(COC(=O)c3ccc(S(=O)(=O)F)cc3)[C@@H]2OC(=O)c2ccc(S(=O)(=O)F)cc2)C(=O)[C@](C)(O)C12CC2 outcome_measure=growth recorded_value=6.34
compound="COC1[C@@H]2C[C@H]3C(C)(C)O[C@@](C/C=C(/C)C(=O)O)(C2=O)[C@]32Oc3c(CC=C(C)C)c4c(c(O)c3C(=O)[C@H]12)C=CC(C)(C)O4 (stereo partly specified)" outcome_measure=growth recorded_value=-78.8
compound=CC1=C[C@H]2O[C@@H]3C[C@H]4OC(=O)/C=C\C=C\[C@H]([C@@H](C)O)OCC[C@@H](C)[C@H](O)C(=O)OC[C@@]2(CC1)[C@]4(C)[C@]31CO1 outcome_measure=growth recorded_value=-7.85
compound=O=C(CCCc1ccc(N(CCCl)CCCl)cc1)OCc1ccccc1 outcome_measure=growth recorded_value=81.8
compound=N#Cc1nc(-c2ccccc2)oc1N1CCC(S(=O)(=O)F)CC1 outcome_measure=growth recorded_value=98.2
compound="NC1CCc2cc(O)c(O)cc2C1 (stereo unspecified)" outcome_measure=growth recorded_value=63.6
compound="C=C1[C@@H](C)C2[C@H](Cc3ccccc3)NC(=O)[C@]23[C@H](OC(C)=O)/C=C/[C@@](C)(O)C(=O)[C@@H](C)C/C=C/[C@H]3[C@@H]1O (stereo partly specified)" outcome_measure=growth recorded_value=23.3
compound="CCC(C)[C@H]1C(=O)O[C@H](C(C)C)C(=O)N(C)[C@@H](C(C)C)C(=O)O[C@H](C(C)C)C(=O)N(C)[C@@H](C(C)C)C(=O)O[C@H](C(C)C)C(=O)N1C (stereo partly specified)" outcome_measure=growth recorded_value=12.5
compound=CC1=C(CCC=NNC(N)=O)C2=C(C)C3(CC3)[C@@](C)(O)C(=O)C2=C1 outcome_measure=growth recorded_value=6.29
